# target.system: IgE-Tb / FcεR1α-Y131A-AF488 (soluble IgE receptor FcεR1α with a Y131A mutation) (Homo sapiens, UniProt P0DOX4, C225A/N265Q/N371Q)
# Construct: 86 nmoles of IgE-Fc(N265Q, N371Q) (Young et al., 1995)
# Sequence (P0DOX4 224-547 C225A/N265Q/N371Q): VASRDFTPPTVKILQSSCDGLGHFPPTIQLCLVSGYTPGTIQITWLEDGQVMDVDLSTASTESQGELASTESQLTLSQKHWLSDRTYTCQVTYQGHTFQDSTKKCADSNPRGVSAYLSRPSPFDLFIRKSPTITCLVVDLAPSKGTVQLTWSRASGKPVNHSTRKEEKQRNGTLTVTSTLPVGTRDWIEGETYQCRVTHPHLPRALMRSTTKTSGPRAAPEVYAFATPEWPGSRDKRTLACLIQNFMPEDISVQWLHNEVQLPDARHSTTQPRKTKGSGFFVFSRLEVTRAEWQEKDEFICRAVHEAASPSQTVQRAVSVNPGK
# assay.info: In vitro FRET assay of IgE-Tb binding to FcεR1α-Y131A-AF488, 2 hours incubation (examples 16 and 89)
# test.context: 5 nM IgE-Tb, 25 nM FcεR1α-Y131A-AF488; 2 hours at room temperature; read-out: FRET IC50 range
pIC50: −log10 of the molar value.
Listing of entries alongside the reported pIC50.
measured.metric: pIC50

[[record]]
compound = "CCNC(=O)N[C@H]1C[C@H](O)c2cc(S(=O)(=O)NCC(C)C)c3cc(C4CC4)ncc3c21 (racemic)"
reported = "5.70 to 7.00"

[[record]]
compound = "CC(C)(F)CNS(=O)(=O)c1cc2c(c3cnc(C4CC4)cc13)C(N)CC2NC(=O)c1cccnc1 (centres unmarked)"
reported = "5.70 to 7.00"

